- System: HCC 2998
- protocol: NCI tumour cell line growth inhibition, 48 h
Active and inactive are the calls of the source. Rule as the data show it: active = GI50 up to about 1.1 µM and inactive = higher. Numbered stars: 1 amine (or outer) side, 2 acyl side, 3 side chain; on linkers, the order of the positions; unused ones are H or OH. Square brackets hold non-standard residues; d marks the D form. Peptide text beside a SMILES is read from it. X55 = CC[C@H](C)[C@H](OC(=O)[C@@H](C)[C@@H](CC)N[*:1])C(=O)[*:2]; X31 = C[C@H](N[*:1])C(=O)C(C)(C)C(=O)[*:2]; NMeY = CN[C@@H](Cc1ccc(O)cc1)C(=O)O; NMeL = CN[C@@H](CC(C)C)C(=O)O; NMeV = CN[C@H](C(=O)O)C(C)C
Respond with a class label; see Y = active, N = inactive

Query: recorded result category for COC[C@@H](C[C@H]1O[C@@](O)([C@H](O)[C@@H]2C[C@H](OC)[C@@H](O)CC/C=C(C)/C=C/[C@@H](O[C@@H]3O[C@@H](C)[C@H](OC)[C@@H](O)[C@@H]3O)[C@H](C)/C=C(C)/C=C(C)/C=C(\C)C(=O)O2)[C@H](C)[C@@H](O)[C@H]1C)O[C@H]1C[C@](C)(O)[C@@H](O[C@H]2C[C@@H](OC)[C@H](O)[C@@H](C)O2)C(C)O1 (stereo not given in full) in this test N

Assay result, entry C=C[C@H]1CN2CCc3c([nH]c4c([C@H]5CCCN5C)c(O)ccc34)[C@@H]2C[C@@H]1C[C@H]1c2[nH]c3ccccc3c2CCN1C — outcome? Y

Hi team, can someone confirm the assay call for O=C(c1ccccc1)c1ccc2c(c1)nc1n2C(c2c(Cl)cccc2Cl)SC1 (stereo not given) ? N

Query: recorded result category for CCC1CC2CN3CCc4c([nH]c5c(-c6c(OC)ccc7c8c([nH]c67)[C@]6(C(=O)OC)CC7CC(CC)C6N(CC8)C7)c(O)ccc45)[C@](C(=O)OC)(C2)C13 (stereo not given in full) in this test N

// param item: CC[C@@]1(C[C@H]2C[C@@]3(C(=O)OC)c4[nH]c5ccccc5c4CCN3C2=S)COC2(CCCCC2)O1 ; yields the recorded call N

Recorded test outcome, item O=C1CC(c2cccc([N+](=O)[O-])c2)C2(C(=O)NC(=S)NC2=O)C(c2cccc([N+](=O)[O-])c2)C1 (stereo not given) N

Please state the recorded outcome for this molecule: CC[C@H](C)[C@@H]1OC(=O)[C@@H](C)[C@@H](CC)NC(=O)[C@H](C)NC(=O)C(C)(C)C(=O)[C@H](C)NC(=O)[C@H](Cc2ccc(OC)cc2)N(C)C(=O)[C@H](C(C)C)N(C)C(=O)CNC(=O)[C@H](CC(C)C)N(C)C(=O)CNC1=O [DOLASTATIN 11] (cyclo(A[X55]G[NMeL]G[NMeV][NMeY](Me)[X31])) Y

Each molecule tested received a call. Report the one for O=C(Nc1nccs1)c1cc(C2=CC=CC([N+](=O)[O-])C=C2)nc(S)n1 (stereo not given) . N

Recorded test call requested for CN(C)Cc1cc(O)c(O)c(CN(C)C)c1 N

# outcome recorded in this test, key = O=C(CSc1nnc(Cc2ccccc2)o1)Nc1ccccc1 N

Just curious, what result did Cc1ccccc1C(=N)c1ccccc1Cc1cccc2ccccc12 get here? N

Hi, sorry to bother you, what did the test record for CC(=O)Oc1ccc2c(c1)[nH]c1c3ccc(OC(C)=O)cc3oc(=O)c21 ? N

Which outcome was assigned to O=C(c1nc2ccccc2nc1O)C(O)c1ccccc1 (stereo not given) in this test? N

Name the outcome recorded for COc1ccc(OC)c2cc(Cc3ccc(N(C)C)cc3)c(=O)c(Cc3ccc(N(C)C)cc3)cc12 in the assay. N

Look up the recorded call for CSc1c(C(=O)Nc2ccccc2)c(N)n(N)c(=O)c1C#N in this test. N

###

- System: Hs-578T
- protocol: NCI tumour cell line growth inhibition, 48 h
Activity calls are given as the source filed them. Rule as the data show it: active = GI50 up to about 1.1 µM and inactive = higher.
quantity name: GI50

Given the compound C#Cc1cc(Br)c(OC(=O)C(C)(C)C)c(-c2cc(C#C)cc(Br)c2OC(=O)C(C)(C)C)c1 and test system Hs-578T, the measured GI50 is 53.6 µM (inactive)

Recorded GI50 for CCCC(=O)NC(Nc1cc(C)ccn1)(C(=O)OCC)C(F)(F)F (stereo not given) on Hs-578T was > 100 µM (inactive)

Fill in: Hs-578T GI50 for CCOC(=O)C#Cc1ccc([N+](=O)[O-])cc1 = 4.18 µM (inactive)

So the reported GI50 for O=C1/C(=C/c2ccccc2[N+](=O)[O-])N=C(c2ccccc2)N1c1nc2ccccc2s1 , on Hs-578T, turned out to be 19.1 µM (inactive)

// returns GI50 for O=C1NC(=O)C(Cc2ccccc2)(c2cccnc2)N1 (stereo not given) with Hs-578T; value = > 100 µM (inactive)

Query CC(C)CCn1nc(N)c2nc3ccccc3nc21 on Hs-578T; GI50 returned: > 100 µM (inactive)

Record for COc1ccc(C(=O)/C=C/c2ccc3c(c2)OCO3)c(OCc2ccccc2)c1 under target or system Hs-578T: GI50 reported as 7.82 µM (inactive)

With Hs-578T as the test system, O=c1[nH]ncc2[nH]c3c(c12)CCc1ccccc1-3 showed GI50 of 10.4 µM (inactive)

The value of GI50 recorded for c1csc(-c2nnc(C34CC5CC(CC(C5)C3)C4)o2)c1 when tested on Hs-578T reads 31.6 µM (inactive)

Let me check: COc1ccc(/C=N/NC(=O)c2ccccc2Nc2ccccc2C(=O)N/N=C/c2ccc(OC)c(OC)c2)cc1OC , system Hs-578T, measured GI50 is > 100 µM (inactive)

###

- Test system: NCI-H23
- protocol: NCI tumour cell line growth inhibition, 48 h
Where a name gives a salt, the structure may show the parent alone. Activity calls are given as the source filed them. Cut-off read from the data, not from the text of the source: active = GI50 up to about 1.1 µM and inactive = higher.
Pick one: Y = active, N = inactive

Recorded call for Clc1ccc(/C=N/Nc2nnc3c4ccccc4c4ncccc4c3n2)cc1 ? N

Call for entry O=S(=O)(O)c1ccc(O)c2ncc(Cl)cc12 : N

Called result for CC1C2CC(C(S(=O)(=O)O)C2=O)C1(C)C (configuration not stated) N

Kindly provide the recorded test outcome for the following compound: O=C1Oc2ccccc2C(=O)/C1=C/N1C(=O)N/C(=C\c2cccc(O)c2)C1=O N

Record lookup: outcome of this test for CCCCCCC(C)c1ccc2c(c1)C(=O)c1nc3ccncc3c(=O)n1-2 (configuration not stated) ? N

Hello, I am checking results. What call was entered for Clc1ccc(C(OCn2ccnc2)c2nc3ccccc3[nH]2)c(Cl)c1 (configuration not stated) ? N

Hey, what did the test say about CC(=O)c1c2c(cc3c1CC1(Cc4cc5c(cc4C1)CCC5)C3)CCC2 ? N

Could you check what this test reported for CCOC(=O)C1=C(O)C(=O)c2c(OC)ccc(OC)c2C1=O ? N

Recorded test call requested for O=C1[C@@H]2C(c3ccc(Cl)cc3Cl)=NO[C@@H]2C(=O)N1c1ccc(Cc2ccc(N3C(=O)[C@H]4C(c5ccc(Cl)cc5Cl)=NO[C@H]4C3=O)cc2)cc1 N

Check the results log: what was the call for CC1=C(CO)C2=C(C)C3(CC3)[C@@](C)(O)C(=O)C2=C1 ? Y

Kindly provide the recorded test outcome for the following compound: CCOC(=O)/C(C#N)=C/Nc1c(C)n(C)n(-c2ccccc2)c1=O N

What is the recorded call for this compound in the test? CN(C)Cc1cc(O)c(O)c(CN(C)C)c1 N

Name the outcome recorded for CC(C)CCOC(=O)NC(Nc1ccc(F)cc1)(C(F)(F)F)C(F)(F)F in the assay. N

Assay result, entry CSc1ncc2c(n1)-c1ccccc1OC2N1CCCC1 (configuration not stated) — outcome? N

What did this assay record as the result for O=C(Nc1nccs1)c1cc(C2=CC=CC([N+](=O)[O-])C=C2)nc(S)n1 (configuration not stated) ? N

What call does the record list for CCOC(=O)/C=C(/C)Nc1nc2c(c(C(=O)OC)c1C#N)CCCC2 ? N

// outcome(item) with item = CC1=CC(C2/C(=N/O)C=C(C)CC2(C)C)C(O)C(C)(C)C1 (configuration not stated) N

Outcome? Cc1ccc(S(=O)(=O)C(CC(=O)N2CCCC2)C(=O)c2ccccc2)cc1 (configuration not stated) N

// outcome(item) with item = Cn1c(=O)[nH]c2sc3c(c2c1=N)CCCC3 N

Which result was noted for this compound in the test: CCOC(=O)C(=O)/C(=C\NC(=S)Nc1ccccc1Cl)C(=O)OCC N

Could you check what this test reported for CC1=CC=NN2C(=O)[C@H](C)C2C1 (some centres not stated) ? N

Please state the recorded outcome for this compound: NCCCNCCCCNCCCN [SPERMINE TETRAHYDROCHLORIDE] N

###

Consider the following compounds; for each one, report its GI50.
- Test system: MDA-N
- protocol: NCI tumour cell line growth inhibition, 48 h
Calls of active or inactive are those of the source. No stated cut-off is given here; in the data, active = GI50 up to about 1.1 µM and inactive = higher.

Per the record, N=C(N)NCCCC(NC(=O)OCCCCCCn1ccc(N)nc1=O)C(=O)O (stereo not drawn) has GI50 of > 100 µM (inactive)

Looking up Cn1c(=O)c2ccccc2c2ccccc21 , I found its GI50 recorded as 47.8 µM (inactive)

Measured GI50 of O=C(Nc1cccc(Cl)c1)Nn1cnnc1 : > 100 µM (inactive)

Query CC[C@]12C=CCN3CC[C@@]4(c5cc(N=O)c(OC)cc5N(C)[C@H]4[C@@](O)(C(=O)NC(Cc4c[nH]c5ccccc45)C(=O)OC)[C@@H]1O)[C@@H]32 (stereo partly drawn) yields GI50 of 20.3 µM (inactive)

Recorded result, O=C1Oc2ccccc2C(=O)/C1=C/N1C(=O)N/C(=C\c2cccc(O)c2)C1=O , GI50: 63.8 µM (inactive)

Per the record, CC(=O)OC[C@@]1(C)[C@@H]2[C@@H]3[C@@]4(CO[C@]3(C)C(=O)[C@@]3(O)C[C@H](C)[C@H](OC(C)=O)[C@@H]3[C@H]4OC(C)=O)[C@H](OC(=O)c3ccccc3)C[C@@H]21 has GI50 of > 100 µM (inactive)

The reported value for O=C1[C@H](c2ccccc2)C2c3ccccc3CCN12 (stereo partly drawn) in terms of GI50 is > 10 µM (inactive)

Reported GI50 for O=C(NC(CO)CO)c1ccc2cc(C(=O)N3CC(CCl)c4ccc([N+](=O)[O-])cc43)[nH]c2c1 (stereo not drawn) was > 100 µM (inactive)

Recorded GI50 (compound CCOC(=O)C1=CC(C)(C(=O)OCC)Nc2c(nc(OC)n(C)c2=O)N1 (stereo not drawn) ): > 10 µM (inactive)

Measured GI50 of Cc1cc2c(cc1Cl)SC(NN(C)C)=NS2(=O)=O : > 10 µM (inactive)

Consider COC(=O)C1C(=O)C=CN([C@H](C)c2ccccc2)[C@@H]1Cc1ccc(OC)c(OCc2ccccc2)c1I (stereo partly drawn) . Its measured GI50 is 15.6 µM (inactive)

Entry O=C1C(O)=C(CCCCCCCCC2CCCCC2)C(=O)c2ccccc21 , GI50 reported as 4.75 µM (inactive)

# GI50 of N#CC12C(=O)NC(=O)C1(C#N)C1C=CC2CC1 (stereo not drawn) = > 100 µM (inactive)

Entry source: ChEMBL document CHEMBL1201862
